Test system: Rec1
Test: Antiproliferative activity against human Rec1 cells assessed as inhibition of cell proliferation incubated for 72 hrs by Cell-titer-Glo luminescent cell viability assay
Assay type: functional, cell-based
Details: Rec1, 72 h
So basically, if IC50 comes in under 2 µM it's Yes, and if it's 2 µM or more it's No.

{"columns": ["molecule", "tgt", "label.value"],
 "data": [
  ["C/C=C/C(=O)Nc1cccc(Cn2nc(-c3ccc(Oc4ccccc4)cc3)cc2C(=O)O)c1", "Rec1", "No"],
  ["C/C=C/C(=O)Nc1cccc(Cn2nc(-c3ccc(Oc4ccccc4)cc3)cc2C(=O)OCC)c1", "Rec1", "No"],
  ["O=C(O)c1cc(-c2ccc(Oc3ccccc3)cc2)nn1C1CCCN(C(=O)CCl)C1 (racemic)", "Rec1", "No"],
  ["C=CC(=O)N1CCC[C@@H](n2nc(-c3ccc(Oc4ccccc4)cc3)c3c(N)ncnc32)C1", "Rec1", "Yes"],
  ["CCOC(=O)c1cc(-c2ccc(Oc3ccccc3)cc2)nn1Cc1cccc(NC(=O)CCl)c1", "Rec1", "Yes"],
  ["O=C(CCl)Nc1ccc(Cn2nc(-c3ccc(Oc4ccccc4)cc3)cc2C(=O)O)cc1", "Rec1", "No"],
  ["C=CC(=O)N1CCCC(n2nc(-c3ccc(Oc4ccccc4)cc3)cc2CO)C1 (racemic)", "Rec1", "No"],
  ["CCOC(=O)c1cc(-c2ccc(Oc3ccccc3)cc2)nn1Cc1ccc(NC(=O)CCl)cc1", "Rec1", "Yes"],
  ["C=CC(=O)Nc1ccc(Cn2nc(-c3ccc(Oc4ccccc4)cc3)cc2CO)cc1", "Rec1", "No"],
  ["C=CC(=O)Nc1cccc(Cn2nc(-c3ccc(Oc4ccccc4)cc3)cc2C(=O)O)c1", "Rec1", "No"],
  ["C=CC(=O)Nc1cccc(Cn2nc(-c3ccc(Oc4ccccc4)cc3)cc2C(=O)OCC)c1", "Rec1", "No"],
  ["C=CC(=O)Nc1ccc(Cn2nc(-c3ccc(Oc4ccccc4)cc3)cc2C(=O)OCC)cc1", "Rec1", "No"],
  ["O=C(CCl)Nc1cccc(Cn2nc(-c3ccc(Oc4ccccc4)cc3)cc2CO)c1", "Rec1", "Yes"],
  ["C=CC(=O)N1CCCC(n2nc(-c3ccc(Oc4ccccc4)cc3)cc2C(=O)OCC)C1 (racemic)", "Rec1", "No"]
]}

---

Assay: in vitro
Details: human, microsomes
Description: Hepatic clearance in human liver microsomes further incubated of 5 to 60 mins in presence of NADPH regenerating system by LC/MS analysis
attribute.measured: CLint scaled (mL/min/kg)

{"columns": ["smiles.string", "attribute.measured", "readout.number"],
 "data": [
  ["O=C(O)Cc1ccccc1Nc1c(Cl)cccc1Cl", "CLint scaled", 109]
]}

---

Assay: Half life in human liver microsomes further incubated of 5 to 60 mins in presence of NADPH regenerating system by LC/MS analysis
Settings: microsomes
attribute.measured: half-life (min)

{"columns": ["compound", "attribute.measured", "readout.units", "readout.number"],
 "data": [
  ["O=C(O)Cc1ccccc1Nc1c(Cl)cccc1Cl [DICLOFENAC]", "half-life", "min", 11.5]
]}

---

Assay: Stability in human liver microsomes assessed as compound remaining incubated of 60 mins in presence of NADPH regenerating system by LC/MS analysis
Conditions: microsomes

{"columns": ["smiles.string", "remaining at 1 h"],
 "data": [
  ["C[C@]12CC[C@H]3[C@@H](CCC4=CC(=O)CC[C@@]43C)[C@@H]1CC[C@@H]2O", "4.2%"]
]}

---

Test system: Rec1
Experiment: Antiproliferative activity against human Rec1 cells assessed as inhibition of cell proliferation incubated for 72 hrs by Cell-titer-Glo luminescent cell viability assay
Type: functional, cell-based
Conditions: Rec1, 72 h
Reported IC50 values for a set of compounds

{"columns": ["compound", "IC50"],
 "data": [
  ["CCOC(=O)c1cc(-c2ccc(Oc3ccccc3)cc2)nn1C1CCCN(C(=O)CCl)C1 (racemic)", "0.4 µM"],
  ["O=C(CCl)N1CCCC(n2nc(-c3ccc(Oc4ccccc4)cc3)cc2CO)C1 (racemic)", "0.4 µM"],
  ["O=C(CCl)Nc1cccc(Cn2nc(-c3ccc(Oc4ccccc4)cc3)cc2C(=O)O)c1", "7.1 µM"],
  ["C/C=C/C(=O)N1CCCC(n2nc(-c3ccc(Oc4ccccc4)cc3)cc2CO)C1 (racemic)", "27.2 µM"],
  ["C=CC(=O)N1CCCC(n2nc(-c3ccc(Oc4ccccc4)cc3)cc2C(=O)O)C1 (racemic)", "50 µM"],
  ["C/C=C/C(=O)Nc1ccc(Cn2nc(-c3ccc(Oc4ccccc4)cc3)cc2CO)cc1", "12.2 µM"],
  ["C=CC(=O)Nc1cccc(Cn2nc(-c3ccc(Oc4ccccc4)cc3)cc2CO)c1", "1.3 µM"],
  ["C=CC(=O)Nc1ccc(Cn2nc(-c3ccc(Oc4ccccc4)cc3)cc2C(=O)O)cc1", "> 60 µM"],
  ["C/C=C/C(=O)Nc1ccc(Cn2nc(-c3ccc(Oc4ccccc4)cc3)cc2C(=O)O)cc1", "23.6 µM"]
]}

---

Test system: JeKo-1
Test: Antiproliferative activity against human JeKo1 cells assessed as inhibition of cell proliferation incubated for 72 hrs by Cell-titer-Glo luminescent cell viability assay
Type: functional, cell-based
Conditions: JeKo-1, 72 h
Reported IC50 values for a set of compounds

{"columns": ["compound", "result.qualifier", "IC50 [µM]"],
 "data": [
  ["C=CC(=O)N1CCC[C@@H](n2nc(-c3ccc(Oc4ccccc4)cc3)c3c(N)ncnc32)C1 [IBRUTINIB]", "=", 1.5],
  ["O=C(CCl)Nc1ccc(Cn2nc(-c3ccc(Oc4ccccc4)cc3)cc2CO)cc1", "=", 0.4],
  ["C=CC(=O)N1CCCC(n2nc(-c3ccc(Oc4ccccc4)cc3)cc2C(=O)O)C1 (racemic)", ">", 60],
  ["O=C(CCl)Nc1cccc(Cn2nc(-c3ccc(Oc4ccccc4)cc3)cc2C(=O)O)c1", "=", 6.3],
  ["C/C=C/C(=O)N1CCCC(n2nc(-c3ccc(Oc4ccccc4)cc3)cc2C(=O)OCC)C1 (racemic)", "=", 26.5],
  ["CCOC(=O)c1cc(-c2ccc(Oc3ccccc3)cc2)nn1Cc1cccc(NC(=O)CCl)c1", "=", 0.4],
  ["C=CC(=O)Nc1cccc(Cn2nc(-c3ccc(Oc4ccccc4)cc3)cc2C(=O)OCC)c1", "=", 7.6],
  ["O=C(CCl)Nc1ccc(Cn2nc(-c3ccc(Oc4ccccc4)cc3)cc2C(=O)O)cc1", "=", 2.5],
  ["C=CC(=O)Nc1ccc(Cn2nc(-c3ccc(Oc4ccccc4)cc3)cc2C(=O)OCC)cc1", "=", 10.9],
  ["C/C=C/C(=O)Nc1ccc(Cn2nc(-c3ccc(Oc4ccccc4)cc3)cc2CO)cc1", ">", 60],
  ["C=CC(=O)Nc1cccc(Cn2nc(-c3ccc(Oc4ccccc4)cc3)cc2C(=O)O)c1", ">", 60],
  ["C/C=C/C(=O)Nc1cccc(Cn2nc(-c3ccc(Oc4ccccc4)cc3)cc2C(=O)O)c1", ">", 60],
  ["CCOC(=O)c1cc(-c2ccc(Oc3ccccc3)cc2)nn1C1CCCN(C(=O)CCl)C1 (racemic)", "=", 0.8],
  ["C=CC(=O)N1CCCC(n2nc(-c3ccc(Oc4ccccc4)cc3)cc2CO)C1 (racemic)", "=", 11.9],
  ["C/C=C/C(=O)Nc1cccc(Cn2nc(-c3ccc(Oc4ccccc4)cc3)cc2C(=O)OCC)c1", "=", 16.7],
  ["C/C=C/C(=O)Nc1ccc(Cn2nc(-c3ccc(Oc4ccccc4)cc3)cc2C(=O)O)cc1", ">", 60],
  ["CCOC(=O)c1cc(-c2ccc(Oc3ccccc3)cc2)nn1Cc1ccc(NC(=O)CCl)cc1", "=", 0.4],
  ["C/C=C/C(=O)Nc1ccc(Cn2nc(-c3ccc(Oc4ccccc4)cc3)cc2C(=O)OCC)cc1", "=", 52.5],
  ["C/C=C/C(=O)N1CCCC(n2nc(-c3ccc(Oc4ccccc4)cc3)cc2CO)C1 (racemic)", ">", 60],
  ["C=CC(=O)Nc1cccc(Cn2nc(-c3ccc(Oc4ccccc4)cc3)cc2CO)c1", "=", 5.2],
  ["C=CC(=O)Nc1ccc(Cn2nc(-c3ccc(Oc4ccccc4)cc3)cc2CO)cc1", "=", 8],
  ["C=CC(=O)N1CCCC(n2nc(-c3ccc(Oc4ccccc4)cc3)cc2C(=O)OCC)C1 (racemic)", "=", 21.2],
  ["O=C(O)c1cc(-c2ccc(Oc3ccccc3)cc2)nn1C1CCCN(C(=O)CCl)C1 (racemic)", "=", 3.6],
  ["C=CC(=O)Nc1ccc(Cn2nc(-c3ccc(Oc4ccccc4)cc3)cc2C(=O)O)cc1", ">", 60],
  ["O=C(CCl)N1CCCC(n2nc(-c3ccc(Oc4ccccc4)cc3)cc2CO)C1 (racemic)", "=", 7.8],
  ["C/C=C/C(=O)Nc1cccc(Cn2nc(-c3ccc(Oc4ccccc4)cc3)cc2CO)c1", "=", 22.6],
  ["C/C=C/C(=O)N1CCCC(n2nc(-c3ccc(Oc4ccccc4)cc3)cc2C(=O)O)C1 (racemic)", ">", 60],
  ["O=C(CCl)Nc1cccc(Cn2nc(-c3ccc(Oc4ccccc4)cc3)cc2CO)c1", "=", 0.4]
]}
